Molecular target: T1, MET-R Fc (R&D Systems, catalog number 8614-MT) (UniProt P08581 25-932)
T1 construct: Bought reagent used as SPR analyte; not shown: Fc part of the bought fusion protein
T1 sequence (P08581 25-932 limits assumed): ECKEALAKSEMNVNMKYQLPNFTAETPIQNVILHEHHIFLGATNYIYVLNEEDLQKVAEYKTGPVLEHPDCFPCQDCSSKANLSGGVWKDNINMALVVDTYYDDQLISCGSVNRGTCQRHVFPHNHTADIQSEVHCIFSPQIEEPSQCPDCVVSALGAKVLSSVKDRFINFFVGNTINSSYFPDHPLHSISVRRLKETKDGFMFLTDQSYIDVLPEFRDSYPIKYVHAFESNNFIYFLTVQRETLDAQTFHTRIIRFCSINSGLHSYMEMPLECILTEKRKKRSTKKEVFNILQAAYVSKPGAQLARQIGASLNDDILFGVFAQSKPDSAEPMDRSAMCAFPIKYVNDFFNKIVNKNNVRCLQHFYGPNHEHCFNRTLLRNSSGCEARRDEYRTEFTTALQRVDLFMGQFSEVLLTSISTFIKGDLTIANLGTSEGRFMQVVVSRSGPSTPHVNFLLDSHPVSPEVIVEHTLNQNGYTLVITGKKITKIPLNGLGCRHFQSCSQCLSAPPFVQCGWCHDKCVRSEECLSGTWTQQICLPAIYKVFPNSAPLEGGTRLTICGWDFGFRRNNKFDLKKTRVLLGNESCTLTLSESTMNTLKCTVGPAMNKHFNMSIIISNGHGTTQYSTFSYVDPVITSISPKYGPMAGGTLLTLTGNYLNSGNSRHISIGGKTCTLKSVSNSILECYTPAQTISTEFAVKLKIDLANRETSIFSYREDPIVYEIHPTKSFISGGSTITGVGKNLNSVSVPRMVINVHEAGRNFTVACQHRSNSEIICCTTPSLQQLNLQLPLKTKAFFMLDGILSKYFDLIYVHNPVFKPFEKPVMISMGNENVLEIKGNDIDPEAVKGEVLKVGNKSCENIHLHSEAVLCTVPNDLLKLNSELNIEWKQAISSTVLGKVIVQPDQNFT
Assay: SPR (BIAcore T200), Fab captured on anti-Fab chip, MET-R Fc as analyte, 25 C, 1:1 model
Observed Property: Kd (nM)
# value in nM; strip the unit string

# get_value(readout='Kd', item= anti-MET Fab variant CDR L3 W96A (Fab, V domains shown, Fab; variable domains only; Kabat numbering) VH: EVQLVESGGGLVQPGGSLRLSCAASGYTFTSYWLHWVRQAPGKGLEWVGMIDPSNSDTRFNPNFKDRFTISADTSKNTAYLQMNSLRAEDTAVYYCATYRSYVTPLDYWGQGTLVTVSS VL: DIQMTQSPSSLSASVGDRVTITCKSSQSLLYTSSQKNYLAWYQQKPGKAPKLLIYWASTRESGVPSRFSGSGSGTDFTLTISSLQPEDFATYYCQQYYAYPATFGQGTKVEIK )
2.1
